These measurements were taken from patent US10173990B2.

# experimental system: URAT1 (Homo sapiens (Human), UniProt Q96S37)
# Sequence (Q96S37 whole entry): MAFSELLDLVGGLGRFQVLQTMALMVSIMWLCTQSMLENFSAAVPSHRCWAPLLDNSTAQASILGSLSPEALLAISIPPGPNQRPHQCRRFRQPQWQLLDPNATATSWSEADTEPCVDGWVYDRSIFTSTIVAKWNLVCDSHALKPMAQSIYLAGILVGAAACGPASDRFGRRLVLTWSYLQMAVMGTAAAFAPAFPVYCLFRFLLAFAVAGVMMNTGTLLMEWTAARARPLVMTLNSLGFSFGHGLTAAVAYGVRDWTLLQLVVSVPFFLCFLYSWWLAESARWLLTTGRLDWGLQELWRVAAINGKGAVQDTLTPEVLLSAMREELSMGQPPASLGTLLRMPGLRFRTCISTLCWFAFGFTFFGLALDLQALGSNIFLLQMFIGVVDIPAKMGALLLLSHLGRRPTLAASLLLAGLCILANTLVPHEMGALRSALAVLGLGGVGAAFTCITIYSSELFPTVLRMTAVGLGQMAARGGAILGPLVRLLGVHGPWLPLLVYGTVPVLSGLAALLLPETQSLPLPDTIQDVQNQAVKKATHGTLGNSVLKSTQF
# assay name: Uptake of [14C] uric acid using HEK-URAT1
# measurement parameters: inhibition of [14C] uric acid uptake into URAT1 stably expressed HEK293 cells
pIC50: −log10 of the molar value.
property name: pIC50

- compound: "CC(C)(C)C(Sc1ccc2cnsc2c1-c1ccc(C#N)cc1)C(=O)O (centres unmarked)"
  experimental system: "URAT1 (Homo sapiens (Human), UniProt Q96S37)"
  pIC50: 6.32
- compound: "CC(C)(Sc1ccc2cnsc2c1-c1ccc(Cl)cc1)C(=O)O"
  experimental system: "URAT1 (Homo sapiens (Human), UniProt Q96S37)"
  pIC50: 6.97
- compound: "CC(C)(Sc1ccc2ncsc2c1-c1ccc(C#N)cc1)C(=O)O"
  experimental system: "URAT1 (Homo sapiens (Human), UniProt Q96S37)"
  pIC50: 6.77

[A] CC(C)(Sc1ccc2ncccc2c1-c1ccc(C#N)cc1)C(=O)O
[B] CC(C)(Sc1ccc2cnsc2c1-c1cccc(C#N)c1)C(=O)O
[C] C/C(=C\C(=O)O)Sc1ccc2ccccc2c1-c1ccc(C#N)cc1
[D] CC(C)(Oc1ccc2ccccc2c1-c1ccc(C#N)c2ccccc12)C(=O)O
Inquiry: Order the records so the highest pIC50 appears first and the lowest last. Use the labels to give the requested order.
Reply text: C, B, D, A

###

# experimental system: URAT1 (Homo sapiens (Human), UniProt Q96S37)
# assay name: Uptake of [14C] uric acid using HEK-URAT1
# measurement parameters: inhibition of [14C] uric acid uptake into URAT1 stably expressed HEK293 cells
pIC50: −log10 of the molar value.
property name: pIC50

[P] N#Cc1ccc(-c2c(SC3(C(=O)O)CCCCC3)ccc3cnsc23)cc1
[Q] N#Cc1ccc(-c2c(SC3(C(=O)O)CCC3)ccc3cnsc23)cc1
Inquiry: Between these two entries, P and Q , state which has the higher pIC50. Give the label under which the chosen entry appears.
Reply text: Q

###

# experimental system: URAT1 (Homo sapiens (Human), UniProt Q96S37)
# assay name: Uptake of [14C] uric acid using HEK-URAT1
# Assay type: cell-based
# measurement parameters: 2 min; [14C] uric acid uptake into URAT1 stably expressed HEK293 cells, 10 μM test compound, 5 μM uric acid, 2 minutes, 37° C.; uptake without test compound = 100%; read-out: % control (10 μM)
property name: remaining activity at 10 µM (%)

These solved cases illustrate the format of a correct answer.
- smi: "CC(C)(Sc1ccc2cnsc2c1-c1ccc(C#N)c(F)c1)C(=O)O"
  units: "%"
  reported: 3.6
- smi: "CC(C)(Sc1ccc2cnsc2c1-c1ccc(OC(F)(F)F)cc1)C(=O)O"
  units: "%"
  reported: 29.2
- smi: "CC(C)(Oc1c(-c2ccc(C#N)cc2)ccc2ncsc12)C(=O)O"
  units: "%"
  reported: 78.6
- smi: "CC(C)(Sc1ccc2ncsc2c1-c1ccc(C#N)cc1)C(=O)O"
  units: "%"
  reported: 7.4
- smi: "N#Cc1ccc(-c2c(O/C=C/C(=O)O)ccc3ncsc23)cc1"
  units: "%"
  reported: 48.7

[1] N#Cc1ccc(-c2c(O/C=C/C(=O)O)ccc3ccccc23)cc1
[2] CC(C)(Sc1c(-c2ccc(C#N)cc2)cnc2ccccc12)C(=O)O
[3] CC(C)(Sc1ccc2cnsc2c1-c1cccc(C#N)c1)C(=O)O
Inquiry: Kindly order the items shown according to remaining activity at 10 µM, from the highest value down. Returns: the labels arranged in the requested order.
Reply text: 2, 1, 3
(2: 36.5%, 1: 5.4%, 3: 2.3%)
